SYSTEM TESTED: HIV Env, isolate Ce0682_E4 (HIV)
TEST PROTOCOL: cell-based or functional assay
VALUE KIND: IC80 (µg/ml) with constrains (µg/mL)
Answers are plain numbers, in µg/mL.

Req: Look up IC80 (µg/ml) with constrains: ePGDM9 (antibody, V domains shown) VH: QAQLVQSGPEVRKPGTSVKVSCKNPGNTLTTYDLHWVRQVPGQGLQWMGWISHEGDKKVIVERFKAKVTIDWDRSTNTAYLQLSGLTSEDTAVYYCAKGSKHRLRDYALYDEDGALNWAVDVDYLANLEFWGQGTAVTVSS VL: DIVLTQSPLSLSVTPGESASISCKSSQSLIHGDRNNYLAWYVQKPGRSPQLLIDLASERASGVPDRFSGSGSRKDFTLKISRVETEDVGTYYCMQGRESPWTFGQGTKVDIK
Resp: 0.022
